pEC50 overview
Tested on: CEM-SS
Experiment: In vitro 50% cellular protection of CEM-SS cells from HIV-1 induced cytopathicity.
Assay type: functional, cell-based
Conditions: Homo sapiens
Interpret pEC50 as the negative base-10 log of the concentration measured in mol/L.

Please review the following examples before continuing.
Cc1cccc2c1nc(-c1c(F)cccc1F)n2Cc1ccccc1    6.12
Cc1cccc2c1nc(-c1ccncc1)n2Cc1c(F)cccc1F    5.46
Fc1cccc(F)c1Cn1c(-c2ccccc2)nc2ccccc21    5.22
Fc1cccc(F)c1Cn1c(-c2c(F)cccc2F)nc2ccccc21    5.77

Now, please, on to the next molecule.
Enquiry: Item under review: `Cc1cccc2c1nc(-c1c(F)cccc1F)n2Cc1c(F)cccc1F` . Reported pEC50?
Return: 6.36
